Molecular target: IL16_1, Q14005
Sequence (Q14005 210-306): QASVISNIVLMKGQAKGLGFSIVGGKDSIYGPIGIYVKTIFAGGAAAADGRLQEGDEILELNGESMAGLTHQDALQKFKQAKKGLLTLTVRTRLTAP
Experiment: holdup assay
Set-up: key: below the threshold = too weak to quantify, mostly under pKd 3.1 to 4
Conditions: plain residues with an end cap or a label only (N-terminal biotin on a linker: ado-ado)
outcome.measure: pKd

Examples with answers:
• SSSVNVSSNL [CXCR1, P25024] = below the threshold
• TKDKVQETQI [LRRC4, Q9HBW1] = 3.54
• STYCDYTIEI [FAM71C, Q8NEG0] = below the threshold
• ELKAEDEVQI [DCHS2, Q6V1P9] = below the threshold
• GVHSNDHSVV [LPAR1, Q92633] = 4.02

Sample KEKASTETEC [TRPM1, Q7Z4N2] ; pKd observed: below the threshold
